target: Human CD38 on transiently transfected Expi293 cells (Origene SC321273) (human) (UniProt P28907); test: flow cytometry, 10 ug/ml scFv-Fc, transfected Expi293 cells
EXPERIMENTAL_ENDPOINT: FACS percent gated (%)
Could you give me the number in %? Just the number is fine.

Need FACS percent gated of 40769p2.1.H12 scFv-Fc (scFv, part only; not given: Linker, domain order, Fc, V domains shown, not shown: another chain or arm of the molecule; a dimerising Fc or GST; small tags and cut ends) VH: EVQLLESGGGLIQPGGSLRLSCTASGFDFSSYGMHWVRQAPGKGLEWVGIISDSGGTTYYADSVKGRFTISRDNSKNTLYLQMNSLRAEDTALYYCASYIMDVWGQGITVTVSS VL: QSVLTQPPSASGTPGQRVTISCSGSNSNVGVNSVYWYQQLPGTAPKLLIYGSGRRPSGVPDRFSVSKSGTSASLAISGLQSEDEADYYCAAWDDGLNAWVFGGGTKLTVL , thanks.
77.1
